METHOD NOTES: stability 90 C., 20 min (V, BP, TW, BS) of hydrocodone conjugates
RUN PARAMETERS: BS (abbreviation not defined)
Residues, ends and D or L forms follow the SMILES beside them. *: point of attachment. X1 = COc1ccc2c3c1OC1C(O*)=CCC4[C@@H](C2)N(C)CC[C@]314
QUANTITY: stability 90 C., 20 min BS
Respond numerically, and do not add a unit to the figure.

Entry CC[C@H](C)[C@H](NC(=O)[C@H](Cc1ccccc1)NC(=O)[C@H](Cc1ccccc1)NC(=O)[C@H](Cc1ccc(O)cc1)NC(=O)[C@@H](N)Cc1ccc(O)cc1)C(=O)OC1=CCC2[C@H]3Cc4ccc(OC)c5c4[C@@]2(CCN3C)C1O5 (some centres unmarked) [Tyr2-Phe2-Ile-HC] (H-YYFFI-X1) ; stability 90 C., 20 min BS = 50

The compound identified as CC[C@H](C)[C@H](NC(=O)[C@@H]1CCCN1C(=O)[C@@H]1CCCN1)C(=O)OC1=CCC2[C@H]3Cc4ccc(OC)c5c4[C@@]2(CCN3C)C1O5 (some centres unmarked) registered its stability 90 C., 20 min BS at 100

Just so you know, measured stability 90 C., 20 min BS for CC[C@H](C)[C@H](NC(=O)[C@H](CCC(=O)O)NC(=O)[C@H](CCC(=O)O)NC(=O)CNC(=O)CN)C(=O)OC1=CCC2[C@H]3Cc4ccc(OC)c5c4[C@@]2(CCN3C)C1O5 (some centres unmarked) [Gly2-Glu2-Ile-HC] (H-GGEEI-X1) came out at 100

The value of stability 90 C., 20 min BS measured for the compound CC[C@H](C)[C@H](NC(=O)CNC(=O)CNC(=O)[C@H](CCC(=O)O)NC(=O)[C@@H](N)CCC(=O)O)C(=O)OC1=CCC2[C@H]3Cc4ccc(OC)c5c4[C@@]2(CCN3C)C1O5 (some centres unmarked) [Glu2-Gly2-Ile-HC, Glu2-Gly2-Ile-Hydrocodone] (H-EEGGI-X1) turned out to be 99

CC[C@H](C)[C@H](NC(=O)[C@@H]1CCCN1C(=O)[C@@H]1CCCN1C(=O)[C@H](CCCCN)NC(=O)[C@@H](N)CCCCN)C(=O)OC1=CCC2[C@H]3Cc4ccc(OC)c5c4[C@@]2(CCN3C)C1O5 (some centres unmarked) [Lys2-Pro2-Ile-HC] (H-KKPPI-X1) yielded stability 90 C., 20 min BS of 100

###

METHOD NOTES: Oral bioavailability of hydromorphone conjugates
RUN PARAMETERS: rats, corrected value calculated based on the control (HM)
Attribute: Oral Cmax %
Express your answer in %, writing the number without its unit.

COMPOUND | REPORTED RESULT
CC[C@H](C)[C@H](NC(=O)CNC(=O)CN)C(=O)OC1=CCC2[C@H]3Cc4ccc(O)c5c4[C@@]2(CCN3C)C1O5 (stereo partly drawn) [GGI-HM] | 32
CC(C)[C@H](NC(=O)CNC(=O)CN)C(=O)OC1=CCC2[C@H]3Cc4ccc(O)c5c4[C@@]2(CCN3C)C1O5 (stereo partly drawn) [GGV-HM] | 63

Let us move to another entry and its Oral Cmax %.
Per the record, CC[C@H](C)[C@H](NC(=O)[C@@H]1CCCN1C(=O)[C@@H]1CCCN1)C(=O)OC1=CCC2[C@H]3Cc4ccc(O)c5c4[C@@]2(CCN3C)C1O5 (stereo partly drawn) [PPI-HM] has Oral Cmax % of 60
